Tested on: SNB-75 CNS
test: NCI-60 one-dose screen, 48 h (100 = growth as untreated, 0 = no growth, -100 = all killed)
condition_info: 10 µM unless noted
Procedure: Growth inhibition of the SNB-75 human tumor cell line is measured as a screen for anti-cancer activity. Cells are grown in 96 well plates and exposed to the test compound for 48 hours. Compounds are tested at a single concentration, which is 10^-5 M for most compounds. The reported endpoint is percent growth (GI% or GIPRCNT), where numbers from 0 - 100% represent growth inhibition, and numbers from -100% - 0 represent cell death. For example, a value of 40 represents 60% growth inhibition. […]
Compounds without any hit were thinned out: in the full panel of roughly 83,000, 20% have a hit.
growth strictly less than 30% = TRUE. Otherwise FALSE.

Inquiry: Say whether its growth is strictly beneath 30%. Entry: `CCCS(=O)(=O)Nc1ccc(F)c(C(=O)c2c[nH]c3ncc(-c4ccc(Cl)cc4)cc23)c1F`
Reply text: TRUE

Inquiry: Say whether its growth is strictly beneath 30%. Entry: CC(=O)CC1CCCC1c1ccc2ccccc2c1 (stereo not given)
Reply text: FALSE

Inquiry: Say whether its growth is strictly beneath 30%. Entry: `CC[n+]1c(/C=C/C=C2\N(C)c3ccccc3C2(C)C)sc2ccccc21`
Reply text: TRUE

Inquiry: Say whether its growth is strictly beneath 30%. Entry: Cc1ccccc1N1C(c2ccccc2)=NNC12C=CC(=O)C=C2Cl (stereo not given)
Reply text: FALSE

Inquiry: Say whether its growth is strictly beneath 30%. Entry: `Clc1ccc2c(NCCNc3nc(N4CCCC4)nc4ccccc34)ccnc2c1`
Reply text: TRUE

Inquiry: Say whether its growth is strictly beneath 30%. Entry: `COc1cc(OC)c(/C=C/S(=O)(=O)Cc2ccc(OC)c(NCC(=O)O)c2)c(OC)c1`
Reply text: TRUE

Inquiry: Say whether its growth is strictly beneath 30%. Entry: `CN(N)c1nc2sc3c(c2c(=O)[nH]1)CCCC3`
Reply text: FALSE

Inquiry: Say whether its growth is strictly beneath 30%. Entry: C=CC(=O)N(C)[C@H]1C[C@H]2OC(C)(C1OC)n1c3ccccc3c3c4c(c5c6ccccc6n2c5c31)C(=O)NC4 (stereo not given in full)
Reply text: TRUE

Inquiry: Say whether its growth is strictly beneath 30%. Entry: `COc1ccc2c(c1OC)C(=O)O[C@@H]2[C@H]1c2c(c(C#CC#Cc3ccc(F)c(F)c3)c3c(c2OC)OCO3)CCN1C`
Reply text: FALSE

Inquiry: Say whether its growth is strictly beneath 30%. Entry: `Cc1cc(Nc2ncc(Cl)c(Nc3ccccc3S(=O)(=O)C(C)C)n2)c(OC(C)C)cc1C1CCNCC1`
Reply text: TRUE
